- System: U251 CNS
- test-name: NCI-60 one-dose screen, 48 h (100 = growth as untreated, 0 = no growth, -100 = all killed)
- experimental-context: 10 µM unless noted
This is part of a sample that, as a whole, favours compounds with a hit. Of some 83,000 tested, about 20% had one in any assay.
measured-quantity: growth (%)
State the answer as a number, implicitly in %.

Examples with their reported growth follow.
{"compound": "COc1cc(NC(=O)CCSc2nc3ccccc3c(=O)n2Cc2ccccc2)cc(OC)c1OC", "measured-quantity": "growth", "endpoint-unit": "%", "numeric-value": 91.6}
{"compound": "CCCCC1CCc2cccc3c(SCC(=O)N(C)c4ccc(Cl)cc4)cc[n+]1c23 (centres undefined)", "measured-quantity": "growth", "endpoint-unit": "%", "numeric-value": 108}
{"compound": "CCN1C(=O)N(CC)C2C1NC(=S)N2/N=C/C=C/c1ccccc1OC (centres undefined)", "measured-quantity": "growth", "endpoint-unit": "%", "numeric-value": 20.8}
{"compound": "Cc1ccc2sc3c(NCCCNCCO)nc4ccccc4c3c(=O)c2c1", "measured-quantity": "growth", "endpoint-unit": "%", "numeric-value": -39.5}
{"compound": "O=c1oc2ccc(Br)cc2c(=O)n1-c1ccc(F)cc1F", "measured-quantity": "growth", "endpoint-unit": "%", "numeric-value": 7.07}
{"compound": "COc1ccc(/C=C2\\CCC/C(=C\\c3ccc(OC)c(OC)c3)C2=O)cc1OC", "measured-quantity": "growth", "endpoint-unit": "%", "numeric-value": 12.3}
{"compound": "COc1nccc2cc3c(=O)n4c(cc5ccccc54)c(=O)n3c12", "measured-quantity": "growth", "endpoint-unit": "%", "numeric-value": 101}
{"compound": "Cn1cc([C@@H]2Nc3ccc4[nH]ncc4c3[C@H]3[C@H]4CCC(C4)[C@H]32)c(C(F)(F)F)n1", "measured-quantity": "growth", "endpoint-unit": "%", "numeric-value": 42.5}
{"compound": "O=C(/C=C/c1cccc(Cl)c1)OCc1ccc2cc1OCC#C/C=C\\C#CCO2", "measured-quantity": "growth", "endpoint-unit": "%", "numeric-value": 102}
{"compound": "CC(=O)c1ccc2oc(=O)n(Cc3ccc(C#N)cc3)c(=O)c2c1", "measured-quantity": "growth", "endpoint-unit": "%", "numeric-value": 105}

Prompt: // fetch growth given entry CN1CCN(Cc2ccc(C(=O)Nc3cncc(C#Cc4cnc(N)c5ccccc45)c3)cc2C(F)(F)F)CC1
Completion: -70.5

Prompt: Give me measured growth, please, for this compound: CCN1C(=O)N(CC)C2C1NN=c1s/c(=C3\C(=O)N(C(C)C)c4ccccc43)c(=O)n12 (centres undefined)
Completion: 20.6

Prompt: Determine from records and report growth for Cn1nc(C(C)(C)C)cc1NC(=O)Cc1ccc(/C=C2\C(=O)Nc3ccccc32)cc1
Completion: 55.5

Prompt: Give the value of growth reported for the following: COc1cc(C#N)cc2[nH]c(=O)oc12
Completion: 92.4

Prompt: Identify growth associated with the compound CC(=S)NC(=O)C(=O)/C=C1/NC(=O)C(=O)S1
Completion: 111

Prompt: Give me measured growth, please, for this compound: O=C(Nc1ccc(I)cc1F)c1cc(Br)ccc1O
Completion: -14.5

Prompt: Indicate its recorded growth; the compound in question is Nc1ncnc(N)c1NC(=O)c1ccc(OCc2ccccc2)cc1
Completion: 102

Prompt: Note growth for the compound shown: O=C(CCN1C(=O)c2ccccc2C1=O)Nc1ccc(Cl)cc1
Completion: 62.2

Prompt: Given the compound Nc1cccc(Nc2cc(S(=O)(=O)O)c(N)c3c2C(=O)c2ccccc2C3=O)c1 , write its reported growth.
Completion: 95.5
